kcat values, listed per item
B1: glmS ribozyme (parent)
chain: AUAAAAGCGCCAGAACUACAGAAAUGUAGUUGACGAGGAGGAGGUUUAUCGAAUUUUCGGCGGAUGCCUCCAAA

# Variants of: B1
# METHOD SUMMARY: kcat; higher = faster cleavage; RNA array
# EXPERIMENTAL CONTEXT: with glucosamine-6-phosphate
Variants at the floor of the assay were thinned out.
Give the value in s⁻¹ but do not write s⁻¹ after it.

Here are 4 variants together with their reported answers.
AUAAAAGCGCCAGAACUACAGAAAUGUAGUUGACGAGGAGGAGGUUUAUCGAAUUUUCGGCGGAUGCAUCUAAA	1.62e-05
AUAAAAGCGCUAGAACUACAGAAAUGUAGUUGACGAGGAGGAGGUUUAUCGAAAUUUCGGCGGAUGCCUCCAAA	0.00189
AUAAAAGCGCCAGAUCUACAGAAAUGUAGUUGACGAGGAGGAGGUUAAUCGAAUUUUCGGCGGAUGCCUCCAAA	0.00433
AUAAAAGCGCCAGAACUACAGAAAUGUAGUUGACGAGGAGGAGGUUUAUCGAAUUAUCGGCGGAUACCUCCAAA	0.00503

Form field: reported kcat of AUAAAUGCGCCAGAACUACAGAAAUGUAGUUGACGAGGAGGAGGUUUAUCGAAUUUUCGGCGGAUGCCUCAAAA
5.43e-05

Would you mind doing AUAAAAGCGCCAGAACUACAGAAAUGUACUUGACGAAGAGGAGGUUUAUCGAAUUUUCGGCGGAUGCCUCCAAA as well?
0.000262

Would you mind doing AUAAAAGCGCCAGAACUACAGAAAUGUAGUUCACGAGGAGGAGGUUUAUCGAAUUUUCGGCGGAUGGCUCCAAA as well?
2.22e-05

Would you mind doing AUAAAAGCGCCCGAACUACAGACAUGUAGUUGACGAGGAGGAGGUUUAUCGAAGUUUCGGCGGAUGCCUACAAA as well?
0.00013

Would you mind doing AUAAAAGCGCCAGAACUACAGAAAUGUAGCUGACGAGGAGGAGGUUUAUCGAUUUUUCGGCGGAUGCCUCCAAA as well?
0.000197

Would you mind doing AUAAAAGCGCCAGAACUACAGAAAUGUAGUUGACGAGGAGGAGGUUUAGCGAAUAUUCGGCGGAUGCCUCCAAA as well?
0.00113

Would you mind doing AUAAAAGCGCUAGAACUACAGAAAUGUAGUUGACGAGGAGGAGGUUUAUCGAAUUUUCGGCGGAUGCCUCGAAA as well?
0.000109

Would you mind doing AUAAAAGCGCCAGAAUUACAGAAAUGUAGUUGACGAGGAGGGGGUUUAUCGAAUUUUCGGCGGAUGCCUCCAAA as well?
0.0195

Would you mind doing AUAAAAGCGCCAGAACUACAGAAAUGUAGUUAACGAGGAGGAGGUUUAUCGGAUUUUCGGCGGAUGCCUCCAAA as well?
0.000151

Would you mind doing AUAAAAGCGCCAGAACUACAGAAAUGUAGUUGACGAGGAGGAGGUUUAUCGAAUUUCCGGCGGAAGCCUCCAAA as well?
1.91e-05

Would you mind doing AUAAAAGCGCCAGUACUACAGAAAUGUAGUUGACGAGGAGGAGGUUUAUCGAACUUUCGGCGGAUGCCUCCAAA as well?
0.00754

Would you mind doing AUAAAAGCGCCAGUACUACAGAAAUGUAGUUCACGAGGAGGAGGUUUAUCGAAUUUUCGGCGGAUGCCUCCAAA as well?
0.000397

Would you mind doing AUAAAAGCGCCAGAACUACAGAAAUGUAGUUGACGAGGAGGAGGUUUAUCGAAUUUUCGGCUGAUGGUUCCAAA as well?
1.17e-05

Would you mind doing AUAAAAGCGCCAGAACUACAGAAAUGUAGUUGACGAGGAGGAGGUUCAUCGCAUUUUCGGCGGAUGCCUCCAAA as well?
4.02e-05

Would you mind doing AUAAAAGCGCCAGAACUACAGAAAUGUAGUUGACGAGGAGGAAGUUUAUCGAAUUUUCGGCGGAUGCCUUCAAA as well?
6.4e-05

Would you mind doing AUAAAAGCGCCAGGACUACAGAAAUGUAGUUGACGACGAGGAGGUUUGUCGAAUUUUCGGCGGAUGCCUCCAAA as well?
1.62e-05

These entries and their values trace back to the supplement of paper PMC7125110.
